# PROTOCOL_DETAILS: Protein binding assay (equilibrium dialysis)
# Type: in vitro ADME, rat
# PROTOCOL_CONDITIONS: rat plasma; equilibrium dialysis 24 h, 37 °C; 2 μmol/L alkaloids, 4 μmol/L saponins; read-out: fu-plasma (unbound fraction)
# Description: Binding of circulating alkaloids and saponins to rat plasma was measured by equilibrium dialysis using Spectra/Por 2 dialysis membranes (molecular weight cutoff, 12–14 kDa; Rancho Dominguez, CA, USA) as described. After equilibrating for 24 h at 55 rpm and 37 °C, the dialysate and the plasma were sampled for analysis. In brief, the concentrations of each analyte in dialysate and rat plasma samples were determined for analysis after equilibrating at 55 rpm and 37 °C for 24 h. […]
Listed below: fraction unbound at 24 h values for each entry.
The answer should be a number; do not append a unit.

Observe how each entry below is paired with its result.
CC(C)=CCC[C@](C)(O[C@@H]1O[C@H](CO)[C@@H](O)[C@H](O)[C@H]1O)[C@H]1CC[C@]2(C)[C@@H]1[C@H](O)C[C@@H]1[C@@]3(C)CC[C@H](O[C@@H]4O[C@H](CO)[C@@H](O)[C@H](O)[C@H]4O[C@@H]4O[C@H](CO)[C@@H](O)[C@H](O)[C@H]4O)C(C)(C)[C@@H]3CC[C@]12C [Compound D2, Ginsenoside Rd] = 0.0075
CC(C)=CCC[C@](C)(O[C@@H]1O[C@H](CO[C@@H]2OC[C@H](O)[C@H](O)[C@H]2O)[C@@H](O)[C@H](O)[C@H]1O)[C@H]1CC[C@]2(C)[C@@H]1[C@H](O)C[C@@H]1[C@@]3(C)CC[C@H](O[C@@H]4O[C@H](CO)[C@@H](O)[C@H](O)[C@H]4O[C@@H]4O[C@H](CO)[C@@H](O)[C@H](O)[C@H]4O)C(C)(C)[C@@H]3CC[C@]12C [Compound D4, Ginsenoside Rb2] = 0.0067
CC(C)=CCC[C@](C)(O[C@@H]1O[C@H](CO[C@@H]2O[C@@H](CO)[C@H](O)[C@H]2O)[C@@H](O)[C@H](O)[C@H]1O)[C@H]1CC[C@]2(C)[C@@H]1[C@H](O)C[C@@H]1[C@@]3(C)CC[C@H](O[C@@H]4O[C@H](CO)[C@@H](O)[C@H](O)[C@H]4O[C@@H]4O[C@H](CO)[C@@H](O)[C@H](O)[C@H]4O)C(C)(C)[C@@H]3CC[C@]12C [Compound D3, Ginsenoside Rc] = 0.0112
CC(C)=CCC[C@](C)(O)[C@H]1CC[C@]2(C)[C@@H]1[C@H](O)C[C@@H]1[C@@]3(C)CC[C@H](O)C(C)(C)[C@@H]3[C@@H](O[C@@H]3O[C@H](CO)[C@@H](O)[C@H](O)[C@H]3O)C[C@]12C [Compound C1, Ginsenoside Rh1] = 0.463
CC(C)=CCC[C@](C)(O[C@@H]1O[C@H](CO)[C@@H](O)[C@H](O)[C@H]1O)[C@H]1CC[C@]2(C)[C@@H]1[C@H](O)C[C@@H]1[C@@]3(C)CC[C@H](O)C(C)(C)[C@@H]3[C@@H](O[C@@H]3O[C@H](CO)[C@@H](O)[C@H](O)[C@H]3O)C[C@]12C [Compound C6, Ginsenoside Rg1] = 0.863

QUERY: # query: fraction unbound at 24 h of entry O=C1C=CC[C@@H]2[C@H]3CCC[N+]4([O-])CCC[C@@H](CN12)[C@@H]34 (stereo partly drawn)
RESULT: 0.912

Data origin, for the record: paper PMC7339578
